Assign TCF/Wnt firefly luciferase reporter signal to each entry below.
Tested on: SW480
Protocol: TCF/Wnt firefly luciferase reporter signal relative to plate median (fraction of plate median); higher = higher Wnt reporter signal
Condition Parameters: 5 µM; treatment time 24 h; reporter: 7TFP

Short answer for "CCN(CC)CCOC(=O)C(c1ccccc1)c1ccccc1" : TCF/Wnt firefly luciferase reporter signal was 0.929

Short answer for "CC(C)=CCc1c2c(c(O)c3c(=O)c(O)c(-c4ccccc4)oc13)C=CC(C)(C)O2" : TCF/Wnt firefly luciferase reporter signal was 0.974

Short answer for "C/C1=C2/[N-][C@H]([C@H](CC(N)=O)[C@@]2(C)CCC(=O)NC[C@@H](C)OP(=O)([O-])O[C@H]2[C@@H](O)[C@@H](n3cnc4cc(C)c(C)cc43)O[C@@H]2CO)[C@]2(C)N=C(/C(C)=C3N=C(/C=C4N=C1[C@@H](CCC(N)=O)C\4(C)C)[C@@H](CCC(N)=O)[C@]\3(C)CC(N)=O)[C@@H](CCC(N)=O)[C@]2(C)CC(N)=O.[CH2-][C@H]1O[C@H](n2cnc3c(N)ncnc32)[C@@H](O)[C@H]1O.[Co+3]" : TCF/Wnt firefly luciferase reporter signal was 0.971

Short answer for "COc1cc(C)c(C(=O)Oc2cc(C)c(C(=O)O)c(O)c2C)c(OC)c1C" : TCF/Wnt firefly luciferase reporter signal was 1

Short answer for "COc1cc(C)c(C(=O)O)c(O)c1" : TCF/Wnt firefly luciferase reporter signal was 0.986

Short answer for "C[C@@H]1CC[C@H]2C(C)(C)[C@H]3C[C@@]12CC[C@@]3(C)O" : TCF/Wnt firefly luciferase reporter signal was 0.94

Short answer for "CNCCc1ccccn1" : TCF/Wnt firefly luciferase reporter signal was 1.1

Short answer for "CN1C(C)(C)CCCC1(C)C" : TCF/Wnt firefly luciferase reporter signal was 1

Short answer for "CC[C@]1(O)C[C@H]2CN(CCc3c([nH]c4ccccc34)[C@@](C(=O)OC)(c3cc4c(cc3OC)N(C=O)[C@H]3[C@@](O)(C(=O)OC)[C@H](OC(C)=O)[C@]5(CC)C=CCN6CC[C@]43[C@@H]65)C2)C1" : TCF/Wnt firefly luciferase reporter signal was 0.713

Short answer for "COc1cc(C(=O)N2CCOCC2)cc(OC)c1OC" : TCF/Wnt firefly luciferase reporter signal was 1.08

Short answer for "O=C(Cn1ccnc1[N+](=O)[O-])NCCO" : TCF/Wnt firefly luciferase reporter signal was 1.02

Short answer for "C[C@H](N)[C@H](O)c1cccc(O)c1" : TCF/Wnt firefly luciferase reporter signal was 0.915

Short answer for CN(C)CCCC1(c2ccc(F)cc2)OCc2cc(C#N)ccc21 (stereo not given) : TCF/Wnt firefly luciferase reporter signal was 1.01

Short answer for "Oc1c(I)cc(I)c2cccnc12" : TCF/Wnt firefly luciferase reporter signal was 0.984

Short answer for "CC(C)C1=CC2=CC[C@@H]3[C@](C)(CCC[C@@]3(C)C(=O)O)[C@H]2CC1" : TCF/Wnt firefly luciferase reporter signal was 0.912

Short answer for "CC(=O)[C@H]1CC[C@H]2[C@@H]3C[C@H](C)C4=CC(=O)CC[C@]4(C)[C@H]3[C@@H](O)C[C@]12C" : TCF/Wnt firefly luciferase reporter signal was 1

Short answer for COC(=O)[C@@H]1OC(=O)C2OC23[C@@]1(C)CCC1[C@]2(C)C(C[C@H](O)[C@]13C)C(C)(C)[C@H](OC(C)=O)C[C@@H]2OC(C)=O (stereo partly drawn) [7beta-HYDROXY-7-DESACETOXYKHIVORINIC ACID, METHYL ESTER] : TCF/Wnt firefly luciferase reporter signal was 1.03

Short answer for CC1CCC2(OC1)OC1CC3C4CCC5C[C@@H](O)CCC5(C)C4=CCC3(C)C1[C@@H]2C (stereo partly drawn) [3beta-HYDROXYISOALLOSPIROST-9(11)-ENE] : TCF/Wnt firefly luciferase reporter signal was 1.01

Short answer for "CN1C(C(=O)Nc2ccccn2)=C(O)c2sccc2S1(=O)=O" : TCF/Wnt firefly luciferase reporter signal was 1.09

Short answer for "Nc1ccc(C(=O)Oc2ccccc2)c(O)c1" : TCF/Wnt firefly luciferase reporter signal was 1.03

Short answer for C/C=C/CCC(=O)c1cc(C)c(O)cc1O [Sohirnone A] : TCF/Wnt firefly luciferase reporter signal was 0.969

Short answer for "C[C@H]1[C@H](C)CC[C@]2(C(=O)O)CC[C@]3(C)C(=CC[C@@H]4[C@@]5(C)C[C@@H](O)[C@H](O)[C@@](C)(CO)[C@@H]5[C@H](O)C[C@]43C)[C@H]12" : TCF/Wnt firefly luciferase reporter signal was 1.04

Short answer for O=c1occ(C(O)CO)c2cccc(O)c12 (stereo not given) [Oospoglycol] : TCF/Wnt firefly luciferase reporter signal was 1.01

Short answer for CC1=C2C(O)C(=O)OC3CC4C(C)(C)C(=O)C=C[C@]4(C)C(CC1)[C@]23C (stereo not given in full) : TCF/Wnt firefly luciferase reporter signal was 1.14

Short answer for CC(=O)OC1CCC2(O)CC1(C)CCC1C2CC1(C)C (stereo not given) : TCF/Wnt firefly luciferase reporter signal was 0.933

Short answer for "O=C1c2ccccc2C(=O)c2c1ccc(O)c2O" : TCF/Wnt firefly luciferase reporter signal was 1.1

Short answer for "CCc1nc(N)nc(N)c1-c1ccc(Cl)cc1" : TCF/Wnt firefly luciferase reporter signal was 1.1

Short answer for CCCCC(CC)CN1CN(CC(CC)CCCC)CC(C)(N)C1 (stereo not given) : TCF/Wnt firefly luciferase reporter signal was 0.997

Short answer for C[C@@H]1O[C@@H](OC[C@H]2O[C@@H](Oc3c(-c4ccc(O)c(O)c4)oc4cc(O)cc(O)c4c3=O)[C@H](O)[C@@H](O)[C@@H]2O)[C@H](O)[C@H](O)[C@H]1O [RUTOSIDE (rutin)] : TCF/Wnt firefly luciferase reporter signal was 0.769

Short answer for CC1CC(OC(=O)C(O)c2ccccc2)CC(C)(C)N1C (stereo not given) : TCF/Wnt firefly luciferase reporter signal was 1.18

Short answer for "Cn1c([N+](=O)[O-])cnc1COC(N)=O" : TCF/Wnt firefly luciferase reporter signal was 0.996

Short answer for CC(=O)O[C@@H]1CO[C@H]2O[C@H]3[C@@H](C(C=O)=C[C@H](O)[C@@H]4C5=C(C(C)C)CC[C@]5(C)CC[C@@]34C)[C@@]2(O)C1=O [Striatal B] : TCF/Wnt firefly luciferase reporter signal was 1.02

Short answer for "Cc1cc(=O)oc2c(O)c(O)ccc12" : TCF/Wnt firefly luciferase reporter signal was 0.944

Short answer for "CCC(=O)OCC(=O)[C@@]1(OC(=O)CC)[C@@H](C)C[C@H]2[C@@H]3CCC4=CC(=O)C=C[C@]4(C)[C@@]3(Cl)[C@@H](O)C[C@@]21C" : TCF/Wnt firefly luciferase reporter signal was 0.941

Short answer for "COC(=O)c1c(C)c2c(c(C)c1O)OC(=O)c1c(C)c(Cl)c(O)c(Cl)c1O2" : TCF/Wnt firefly luciferase reporter signal was 0.933
